The molecules listed here are annotated with their IC50.
Target: SzeaOBP28 (Sitophilus zeamais, UniProt A0A4V1GPX2)
Sequence (A0A4V1GPX2 entry or part of it): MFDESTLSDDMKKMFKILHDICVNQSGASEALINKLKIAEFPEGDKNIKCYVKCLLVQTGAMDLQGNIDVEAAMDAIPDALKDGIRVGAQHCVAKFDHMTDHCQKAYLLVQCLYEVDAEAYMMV
Assay: Fluorescence competitive binding assay (1-NPN probe) with recombinant SzeaOBP28

Study these solved cases before continuing.
>>> data_value("COCCOC(=O)c1ccccc1C(=O)OCCOC [Bis(methylglycol) phthalate, Bis(2-methoxyethyl) phthalate]")
"38.9 µM"
>>> data_value("CCCC(C)=O")
"> 60 µM"
>>> data_value("CCCCCC=O")
"59.4 µM"
>>> data_value("CC(=O)CCC=C(C)C")
"45.8 µM"

For the molecule O=Cc1ccccc1 , what IC50 is on record? > 60 µM

Which value of IC50 has been reported for COc1cc(C=O)ccc1O [4-Hydroxy-3-methoxybenzaldehyde] in the records? 24.7 µM

Provenance of the data: paper PMC6920827
